The reported numbers originate from the supplement of paper PMC9732359.

Assay: protein stability index of a GFP-peptide fusion (yeast GPS) (PSI 1-4); higher = more stable; sorted into four equal gates, so the index is relative within each strain
Conditions: ubr1∆
Label scheme for protein stability index: lower than 3 is f, 3 and above is t.

- PDISRAVINIRDDGKRE [RPO31]: f
- VPCDRIEKSRLFSEKTI [SNF6]: f

Assess whether reported protein stability index for SIDPPGCVDIDDALHAK [DIS3] sits at 3 or higher.
t

Say whether PPLLVYKWTQGINNLSE [PRP8] shows protein stability index of 3 or more.
t

Entry ICNPVHKHREARGLTAT [RPL15B] : is its protein stability index no less than 3?
f

Given the entry VLNGQKIVVVRAEALNI [RPL16B] , answer whether its protein stability index meets or surpasses 3.
t

Check the entry NTFVTRLNNVFVIGEQG [RPS4A] : does protein stability index equal or exceed 3?
t

Check if protein stability index >= 3 (inclusive). Item: SETFLQFYVKRWKRFTI [CDC53]
f

Item ERSICALGEFADWDPES [YML031W/NDC1] with protein stability index of 3 or above?
t

Check this sequence for protein stability index at or above 3: SKNAQFICTTFRTDMLQ [SMC3]
f

Kindly determine if protein stability index recorded for NLATWYHSAGGRDKHAL [SSN3] is above or exactly 3.
t

====

Assay: protein stability index of a GFP-peptide fusion (yeast GPS) (PSI 1-4); higher = more stable; sorted into four equal gates, so the index is relative within each strain
Conditions: ubr1∆
Answer 0.0 if protein stability index is under 3, and 1.0 if it is 3 or more.

Reference set, count: 8
* DLKESMVKGLLKSFTES [ECM29] | 1.0
* YVIKALQSLTSKGYVKT [RPS10A] | 0.0
* EVNISSLDAREANFDLI [RPC40] | 1.0
* DSPASNEDDLTVKLTEI [RPO31] | 1.0
* LLSDPTITIKSYHLWPS [PRP8] | 0.0
* TAKKTNRSAYDSKNTPN [YDL088C/ASM4] | 0.0
* STTAALQSISSLTISLY [RPN7] | 0.0
* YNGRGARERKTATYNDN [SNF2] | 0.0

Lab note: next sequence to report on.
API: above_or_equal(metric=protein stability index, cutoff=3) for item GMPNMPGMPNMPGMPNM [SRP54]
1.0

====

Assay: protein stability index of a GFP-peptide fusion (yeast GPS) (PSI 1-4); higher = more stable; sorted into four equal gates, so the index is relative within each strain
Conditions: ubr1∆
VALUE_TYPE: protein stability index
Output spec: single numeric token, no unit.

// below: answered sequences
- QGIVRVYSKQATFLLTD [MCD1]: 2.03
- YPFDKLESWWLVLGEVS [BRR2]: 3.41
- RVASDTVHEMEEELKKL [SMC4]: 3.63
- FVPNDGCLNFVDENDEV [RPS23A]: 2.65

If you can, please state the reported protein stability index value of ASNGRNKKGRGHVKPVR [RPS26A] .
3.3

Which protein stability index is reported for this sequence? TLLESNLCKIIEPFECV [RPN6]
2.88

Tell me the measured protein stability index of QDYYIIGANIYQSPTIF [MED6] , please.
2.46

What does the data say about its protein stability index? Entry: LGRTGSRGGVTQVRVEF [RPS28A]
3.19

====

Test: protein stability index of a GFP-peptide fusion (yeast GPS) (PSI 1-4); higher = more stable; sorted into four equal gates, so the index is relative within each strain
Conditions: ubr1∆
Known protein stability index of a selection of sequences
Keep it simple and answer with nothing but the number.

• DPTLTTTTSFTTSEATA [RPN4] = 2.92
• LVYNMTSFEQGEITFDG [RPT4] = 2.94

Form field: reported protein stability index of SSKPAFNLISNAGTEKE [YLR335W/NUP2]
3.07

====

Experiment: protein stability index of a GFP-peptide fusion (yeast GPS) (PSI 1-4); higher = more stable; sorted into four equal gates, so the index is relative within each strain
Conditions: doa10∆
VALUE_TYPE: protein stability index
# answer = number (no unit)

Param item = KRFMNTSQNPQRDAEIS [BRR2] ; retrieve measured protein stability index.
3.04

Request the reported protein stability index associated with CTNLTNRTLYELADLPK [GRR1]
2.93

Query (sequence): GFNSIWKIPQNDIPQTE [SSN2] ; field requested: protein stability index
3.09

====

Test: protein stability index of a GFP-peptide fusion (yeast GPS) (PSI 1-4); higher = more stable; sorted into four equal gates, so the index is relative within each strain
Details: pdr5∆
Binary call on protein stability index: 1 from 3 upward, 0 beneath that.

Here's what some known entries look like.
* RRHRNPDLQFIVISLKN [SMC1] | 0
* FQKETNMKVTILHGSKS [PRP28] | 1
* ASELANPYSSYVSQIRK [YAR002W/NUP60] | 0
* FTPEEEAAIRRENEWAE [SKP1] | 1
* LLNEWSHNVDELLEHIE [RPN5] | 0
* FLNEARDKAGRLAEVNL [RPO21] | 0

Confirm if protein stability index reported for the sequence GMVKLNEYPVADAVTKD [REC8] is 3 or above.
0

Identify whether the reported protein stability index of the following sequence is 3 or greater: DSVFSFGPKKENRKKDE [YLR335W/NUP2]
0

====

Experiment: protein stability index of a GFP-peptide fusion (yeast GPS) (PSI 1-4); higher = more stable; sorted into four equal gates, so the index is relative within each strain
Settings: san1∆
Each entry below carries its reported protein stability index.

• SYKMNSSAADITMESVH [PRP8] = 3.21
• QLESYEYMVQYIDEMYN [RRI1] = 3.27
• LMVFNDDTKNQDSMSKG [YGR119C/NUP57] = 2.94
• YGTRPLVLPPVVTSSVA [SNF2] = 1.76
• RKHHKKGITEEVAKKRS [RPL24A] = 3.19
• TETFEKPQRTNTLRMKH [RPB2] = 3.16

Fill in: protein stability index of FLELTRRADVKTATVKI [RPL38] is ___
2.02

For the sequence shown here, YPFVTNDDIEWMLSICV [YJR042W/NUP85] , give the reported protein stability index.
2.67

====

protein stability index for assorted sequences
Experiment: protein stability index of a GFP-peptide fusion (yeast GPS) (PSI 1-4); higher = more stable; sorted into four equal gates, so the index is relative within each strain
Details: doa10∆
API doc: respond with a numeric literal and nothing else, no unit.

Solved cases below.
- TVLFFIGVRCYEAYPNT [FAS1]: 1.21
- GGSRGGGSNYMSNLPFG [RPC31]: 2.94
- NRANVSKDELREKLAEV [RPS24A]: 3.53
- ELNDIDTKIDQVNGNIR [SMC3]: 3.34
- MDTSDDAFVATAFATEF [DLS1]: 2.82
- KAAFLGSEVRLRDDTLP [COR1]: 2.54
- PGRKYTTLGKLSTSVGW [RPL16A]: 2.92
- AGVVQDIGSDPTLPRSD [RPB9]: 2.83

Alright, here's another sequence for you.
Look up protein stability index for this sequence: SLELQSFQKIPLSRINE [YML103C/NUP188]
2.67

====

Test: protein stability index of a GFP-peptide fusion (yeast GPS) (PSI 1-4); higher = more stable; sorted into four equal gates, so the index is relative within each strain
Conditions: pdr5∆
VALUE_TYPE: protein stability index
I only need the number, thanks.

• KVFDTLTRFSHDADLEV [RPN1] = 2.31

As a next step, examine the sequence that follows.
Recorded protein stability index for HTEDESTKELKFSDIIQ [BRN1] , please?
2.89

====

Test: protein stability index of a GFP-peptide fusion (yeast GPS) (PSI 1-4); higher = more stable; sorted into four equal gates, so the index is relative within each strain
Conditions: doa10∆
VALUE_TYPE: protein stability index
The answer should be written as a number, with no unit following it.

Could you share which protein stability index value was measured for DDDERVEYNLFTNRSTM [BRN1] ?
2.97

Reported protein stability index, sequence QIILAYIKYNILLTSIS [SRP68] : ____
1.29

Endpoint output: protein stability index of YYVPYSKLMPVLKSSVY [RPC82] . Value?
1.53

====

Assay: protein stability index of a GFP-peptide fusion (yeast GPS) (PSI 1-4); higher = more stable; sorted into four equal gates, so the index is relative within each strain
Details: san1∆
VALUE_TYPE: protein stability index
Could you keep your reply to the number by itself?

Worked cases, answers included:
* YATKLSKFTKIPPTFDK [MED4] | 3.29
* FTQPALTLMEKAAFEDL [FAS1] | 2.77
* SLDDNSTSLEKQINSIK [YJL041W/NSP1] | 2.97
* ESSHEQEEFVQFLQLDN [ECM29] | 3.22
* SKRYIPSVNDFVIGVII [RRP40] | 2.17

Param item = EKLYIFYKLNMPDEFNT [SRP72] ; retrieve measured protein stability index.
1.91

What does the data say about its protein stability index? Entry: INYLLTLAITTVTNSKF [RPN2]
2.1

Given the sequence KALILAPTRELVQQIQK [PRP28] , what is its reported protein stability index?
2.75

Could you tell me which protein stability index is on file for LDVTKEAQANLLTAKHG [RPO21] ?
2.8

Value lookup for protein stability index; key = RHHRKTEKEEDAELMAD [ISW2]
3.15

State the recorded protein stability index for this entry: TVIEGVKEESQPDENTK [SWI3]
2.74

Recorded protein stability index of FGQKGGQAIVVHPDYLY [FAS2] , please.
1.99

# query: protein stability index of entry FQKETNMKVTILHGSKS [PRP28]
3.21

Item under review: ANTNSVTSMEAAREKKI [YIL149C/MLP2] . Reported protein stability index?
3

Find the recorded protein stability index belonging to VYEYVIASTLGPSAMRL [RPC82] and report it.
1.6

Looking for the measured protein stability index of QQDQPEQSEQPEQHQDK [RPN10] , can you help?
2.83

Request the reported protein stability index associated with ERSDLLPYLSDTCAVSF [YJR042W/NUP85]
2.59

Suppose we examine the sequence EKSLLPKIETNVYVGMT [ISW2] ; what protein stability index value has been reported?
3.07
